Molecular target: human F508del-CFTR (Homo sapiens, UniProt P13569, DEL508-508)
Sequence (P13569 with tags, fused parts or gaps DEL508-508): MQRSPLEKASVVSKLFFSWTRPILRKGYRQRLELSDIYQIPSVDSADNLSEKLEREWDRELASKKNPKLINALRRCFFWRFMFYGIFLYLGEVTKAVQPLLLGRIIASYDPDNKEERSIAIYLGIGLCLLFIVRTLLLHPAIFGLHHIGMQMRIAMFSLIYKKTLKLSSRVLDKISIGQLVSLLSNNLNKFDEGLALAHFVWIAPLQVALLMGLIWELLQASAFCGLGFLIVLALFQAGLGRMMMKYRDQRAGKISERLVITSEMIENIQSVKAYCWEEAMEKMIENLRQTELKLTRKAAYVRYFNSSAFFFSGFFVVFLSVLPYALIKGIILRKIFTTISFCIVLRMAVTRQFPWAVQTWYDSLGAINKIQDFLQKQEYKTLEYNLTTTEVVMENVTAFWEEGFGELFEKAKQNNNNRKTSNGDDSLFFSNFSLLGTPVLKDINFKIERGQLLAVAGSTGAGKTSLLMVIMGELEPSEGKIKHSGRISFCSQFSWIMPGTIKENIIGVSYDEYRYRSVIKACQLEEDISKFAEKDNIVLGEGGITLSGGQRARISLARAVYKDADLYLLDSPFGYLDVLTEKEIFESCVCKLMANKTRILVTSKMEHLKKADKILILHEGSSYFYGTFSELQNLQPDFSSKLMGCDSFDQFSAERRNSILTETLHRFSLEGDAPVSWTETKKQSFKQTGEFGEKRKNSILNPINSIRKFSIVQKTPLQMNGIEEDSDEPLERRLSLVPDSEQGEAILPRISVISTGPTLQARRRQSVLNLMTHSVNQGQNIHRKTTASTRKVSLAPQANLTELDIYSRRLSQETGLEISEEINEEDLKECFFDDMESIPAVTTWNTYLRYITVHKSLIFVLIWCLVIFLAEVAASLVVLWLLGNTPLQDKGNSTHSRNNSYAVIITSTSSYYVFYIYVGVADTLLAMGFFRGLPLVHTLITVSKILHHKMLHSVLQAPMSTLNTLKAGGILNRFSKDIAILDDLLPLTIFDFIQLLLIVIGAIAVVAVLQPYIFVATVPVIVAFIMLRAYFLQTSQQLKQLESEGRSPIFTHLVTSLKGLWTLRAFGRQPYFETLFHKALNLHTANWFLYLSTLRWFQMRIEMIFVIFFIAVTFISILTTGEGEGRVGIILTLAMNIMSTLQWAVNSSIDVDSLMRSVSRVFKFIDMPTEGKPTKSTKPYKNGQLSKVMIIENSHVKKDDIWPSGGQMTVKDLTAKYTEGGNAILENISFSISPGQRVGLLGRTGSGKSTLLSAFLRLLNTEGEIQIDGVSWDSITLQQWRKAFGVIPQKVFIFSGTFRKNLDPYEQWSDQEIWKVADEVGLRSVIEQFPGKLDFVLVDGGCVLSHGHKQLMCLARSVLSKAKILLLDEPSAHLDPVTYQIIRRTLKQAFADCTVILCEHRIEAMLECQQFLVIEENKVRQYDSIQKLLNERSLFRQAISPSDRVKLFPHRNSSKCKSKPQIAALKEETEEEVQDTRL
Assay: F508del-CFTR cell surface expression (corrector activity), DiscoveRx ß-galactosidase complementation chemiluminescence assay in recombinant U2OS cell line
Conditions: U2OS, in relation to Emax of corrector lumacaftor (=100%); arithmetic mean values
Mark y only for Emax values smaller than 300%; exact matches and larger values are n.

Previously resolved entries follow.
Cc1cc(CCNC(=O)[C@@H]2CC(=O)N(C)[C@@H](CC(C)C)C(=O)N(C)[C@H](C3CCCC3)C(=O)N[C@H](Cc3ccccc3)COc3cnc4ccc(F)cc4c3C(=O)N2)on1 ... n
CC(C)C[C@H]1C(=O)N2CCCC[C@H]2C(=O)N[C@H](Cc2ccccc2)COc2ccc3ncc(F)cc3c2C(=O)N[C@H](C(=O)NCCc2cc(C3CC3)no2)CC(=O)N1C ... y
COc1cccc(CCNC(=O)[C@@H]2CC(=O)N(C)[C@@H](CC(C)C)C(=O)N(CCC3CCCCC3)CC(=O)N[C@H](Cc3ccccc3)COc3cc(OC)c(OC)cc3C(=O)N2)c1 ... y

Please turn your attention to the following entry.
query: For this molecule, is Emax lower than 300%? COc1cccc(CCNC(=O)[C@@H]2CC(=O)N(C)[C@@H](CC(C)C)C(=O)N(C)CC(=O)N[C@H](Cc3ccccc3)COc3ccc4cc(C)oc4c3C(=O)N2)c1
result: n

----------
Target: human F508del-CFTR (Homo sapiens, UniProt P13569, DEL508-508)
Assay: F508del-CFTR cell surface expression (corrector activity), DiscoveRx ß-galactosidase complementation chemiluminescence assay in recombinant U2OS cell line
Conditions: EC50, F508del-CFTR cell surface expression, U2OS cell line, 16h compound incubation; geomean values
Each entry below carries its reported pEC50.
The value called pEC50 is obtained by taking minus log10 of the concentration in mol/L.

Please review the following examples before continuing.
CC(C)C[C@H]1C(=O)N(CCC2CC3CCC2O3)CC(=O)N[C@H](Cc2ccccc2)COc2ccc3ccccc3c2C(=O)N[C@H](C(=O)NCCc2ccc3c(c2)OCO3)CC(=O)N1C (some centres unmarked) ... 6.38
COc1cccc2c1C(=O)N[C@H](C(=O)NCCc1ccc3c(c1)OCCCO3)CC(=O)N(C)[C@@H](CC(C)C)C(=O)N(CCC1CCCCC1)CC(=O)N[C@H](Cc1ccccc1)CO2 (mixture of isomers) ... 6.57

query: Bench note: what pEC50 did CC(C)C[C@H]1C(=O)N2CCOC[C@@H]2C(=O)N[C@H](Cc2ccccc2)COc2ccc3ccccc3c2C(=O)N[C@H](C(=O)NCCc2nc3c(s2)CCC3)CC(=O)N1C show?
result: 6.41

query: Another compound: COc1cccc2c1C(=O)N[C@H](C(=O)NCC[C@H]1COc3ccccc3O1)CC(=O)N(C)[C@@H](CC(C)C)C(=O)N(CCC1CCCCC1)CC(=O)N[C@H](Cc1ccccc1)CO2 (racemic)
result: 6.53

query: Another compound: COc1cccc(CCNC(=O)[C@@H]2CC(=O)N(C)[C@@H](CC(C)C)C(=O)N3CCOC[C@@H]3C(=O)N[C@H](Cc3ccccc3)COc3ccc4ccccc4c3C(=O)N2)c1
result: 6.67

----------
Biological target: human F508del-CFTR (Homo sapiens, UniProt P13569, DEL508-508)
Assay: F508del-CFTR cell surface expression (corrector activity), DiscoveRx ß-galactosidase complementation chemiluminescence assay in recombinant U2OS cell line;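 further: U2OS cells co-expressing ProLink-tagged F508del-CFTR and a membrane-anchored enzyme acceptor, where more surface CFTR restores β-galactosidase activity measured by chemiluminescence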
Details: EC50, F508del-CFTR cell surface expression, U2OS cell line, 16h compound incubation; geomean values
Mark True only for EC50 values smaller than 300 nM; exact matches and larger values are False.

Previously resolved entries follow.
CC(C)C[C@H]1C(=O)N(CCC2CCC3(CCOCC3)CO2)CC(=O)N[C@H](Cc2ccccc2)COc2ccc3ccccc3c2C(=O)N[C@H](C(=O)NCCc2ccc3c(c2)OCO3)CC(=O)N1C (some centres unmarked) [Example 334] ... False
CC(C)C[C@H]1C(=O)N(CCC2CCCCC2)CC(=O)N[C@H](Cc2ccccc2)COc2cc3c(cc2C(=O)N[C@H](C(=O)NCCc2ccc4c(c2)OCO4)CC(=O)N1C)OCO3 [Example 2] ... True
COc1cccc2c1C(=O)N[C@H](C(=O)NCCc1ccc3c(c1)OCC3)CC(=O)N(C)[C@@H](CC(C)C)C(=O)N(CCC1CCCCC1)CC(=O)N[C@H](Cc1ccccc1)CO2 (mixture of isomers) [Example 15] ... True
COc1ccc(C2(CNC(=O)[C@@H]3CC(=O)N(C)[C@@H](CC(C)C)C(=O)N(C)C4(CC4)C(=O)N[C@H](Cc4ccccc4)COc4cnc5ccc(F)cc5c4C(=O)N3)CC2)cc1OC [Example 166] ... False

query: For this molecule, is EC50 lower than 300 nM? CC(C)C[C@H]1C(=O)N(C)CC(=O)N[C@H](Cc2ccccc2)COc2cc3c(cc2C(=O)N[C@H](C(=O)NCCc2ccc4c(c2)OCCCO4)CC(=O)N1C)OCO3 [Example 101]
result: True

query: Another molecule: CC(C)C[C@H]1C(=O)N2CCCC[C@@H]2C(=O)N[C@H](Cc2ccccc2)COc2cnc3ccccc3c2C(=O)N[C@H](C(=O)NCCc2ccccc2)CC(=O)N1C [Example 77]
result: True
